assay: NCI Yeast Anticancer Drug Screen. Data for the rad50 strain (AID 155);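 also: 0% = growth of vehicle-only cultures of the same strain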; conditions: S. cerevisiae rad50 strain growth inhibition; at 50.0 µM
About 79,000 compounds went through this panel and 15% of them were active in at least one assay; those are over-represented in the sample as a whole. Calls of active or inactive are those of the source. Rule as the data show it: active = growth inhibition above about 70%; inactive = the rest.
Would you mind answering with one of these outcomes? true (1) = active, false (0) = inactive

Observe how each entry below is paired with its result.
compound	class.assignment
CC(NCCNC(C)c1ccccc1)c1ccccc1 (configuration not stated)	false (0)
CC(C)OC1(c2ccccc2)c2cccc3cccc(c23)C1(O)c1ccccc1 (configuration not stated)	false (0)
Oc1ccccc1C=Nc1ccccc1N=Cc1ccccc1O.[Zn]	false (0)
C=C1C(=O)OC2CCCC(O)C12 (configuration not stated)	false (0)
CCOC(=O)NC(Nc1ccc(F)c(F)c1)(C(=O)OCC)C(F)(F)F (configuration not stated)	false (0)

Query: What is the recorded call for this compound in the test? NC(=O)C1C[C@@H](O)CN1C(=O)c1ccc2c(c1)OCO2 (some centres not stated)
Reply: false (0)

Query: And the next one, Nc1nc2scnc2c(=O)[nH]1 ?
Reply: false (0)

Query: And the next one, Cc1cc(C)n2ncc(Br)c2n1 ?
Reply: false (0)

* * *

test: NCI Yeast Anticancer Drug Screen. Data for the mlh1 rad18 strain (AID 175); conditions: S. cerevisiae mlh1 rad18 strain growth inhibition; at 50.0 µM; hits give high values
Compounds without any hit were thinned out: in the full panel of roughly 79,000, 15% have a hit.
property.name: growth inhibition (%)
Record the value in %, omitting the unit from your answer.

molecule	growth inhibition [%]
CCC1=C(CC2NCCc3ccccc32)CC2c3cc(OC)c(OC)cc3CCN2C1 (stereo unspecified)	-11.1
CN(C)C(=S)SCCC(=O)O	-8.2
C1=C(c2ccccc2)Cc2ccccc21	23.9
Cc1cc2[nH]c3ccccc3n2c(=O)c1N=Nc1ccccc1	15.8
Cc1ccc(-n2nc3c(c(C#N)c2=O)-c2ccccc2C3=O)cc1	-14.3

Query: I have this molecule here, C=CS(=O)(=O)c1ccc(NC(=O)Nc2ccc(Cl)cc2)cc1 , and I need its recorded growth inhibition.
Reply: 5.85

Query: And the next one, CCc1cccc(CC)c1NC(=O)c1ccccc1Cl ?
Reply: 26.8

Query: And the next one, COC(=O)c1ccc(Cl)nc1 ?
Reply: -10.3

* * *

assay: NCI Yeast Anticancer Drug Screen. Data for the rad50 strain (AID 155);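 also: 0% = growth of vehicle-only cultures of the same strain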; details: S. cerevisiae rad50 strain growth inhibition; at 50.0 µM
This is part of a sample that, as a whole, favours compounds with a hit. Of some 79,000 tested, about 15% had one in any assay. The source made the active and inactive calls. Cut-off read from the data, not from the text of the source: active = growth inhibition above about 70%; inactive = the rest.
Would you mind answering with one of these outcomes? Yes (active), No (inactive)

Observe how each entry below is paired with its result.
compound	class.assignment
CCCCn1c2c(c3ccccc3c1=O)C(=O)c1ccccc1-2	No
CC[n+]1c(C)sc2cc(Cl)c(-c3ccccc3)cc21	No
Nc1cc(F)ccc1CC(=O)O	No

Here is another compound to look at.
Query: What is the recorded call for this compound in the test? CCOC(=O)c1c(N)n(-c2ccccc2)c(=S)n(-c2ccccc2)c1=O
Reply: No

* * *

test: NCI Yeast Anticancer Drug Screen. Data for the mlh1 rad18 strain (AID 175); details: S. cerevisiae mlh1 rad18 strain growth inhibition; at 50.0 µM; hits give high values
This is part of a sample that, as a whole, favours compounds with a hit. Of some 79,000 tested, about 15% had one in any assay.
Below: a set of entries, each annotated with reported growth inhibition.
Record the value in %, omitting the unit from your answer.

compound	growth inhibition, %
Cc1cc(C)c(C(=O)c2ccccc2C)c(C)c1	15.7
CCCNCCCCC(C)Nc1cc(OC)cc2cccnc12 (stereo unspecified)	23.9
CN1C/C(=C/c2ccc(N(C)C)cc2)C(=O)/C(=C/c2ccc(N(C)C)cc2)C1	-18.9
CC(O)C(C)C(N)C(=O)O (stereo unspecified)	18.4
C=CCc1oc(C)nc1CCCC	23.3

Consider the record given below.
Query: I have this compound here, O=C(/C=C/c1ccccc1)NC(=S)Nc1ccc(F)c([N+](=O)[O-])c1 , and I need its recorded growth inhibition.
Reply: 12.2

* * *

Below: a set of entries, each annotated with reported growth inhibition.
experiment: NCI Yeast Anticancer Drug Screen. Data for the sgs1 mgt1 strain (AID 161);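 also: 0% = growth of cultures given vehicle only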; settings: S. cerevisiae sgs1 mgt1 strain, at 50.0 µM, hits give high values
About 79,000 compounds went through this panel and 15% of them were active in at least one assay; those are over-represented in the sample as a whole. Where a SMILES comes first, the peptide text is derived from it. [ ]: non-standard residue; d: D form. The star is where a group is joined. ξ: configuration not given here. NMeF = CN[C@@H](Cc1ccccc1)C(=O)O; NMeV = CN[C@H](C(=O)O)C(C)C; ξNMeN = CNC(CC(N)=O)C(=O)O; NMeA = CN[C@@H](C)C(=O)O; ξNMeV = CNC(C(=O)O)C(C)C; Boc = CC(C)(C)OC(=O)*
Record the value in %, omitting the unit from your answer.

// solved cases for growth inhibition follow
compound	u	reported.result
COC(=O)c1nc2c3c(cccc3c1C(=O)OC)Nc1ccccc1-2	%	0.35
Oc1ccccc1/C=N\Sc1ccc(Br)cc1	%	22
Cc1ccc(S(=O)(=O)N/N=C/c2cc([N+](=O)[O-])cc(I)c2O)cc1	%	-4.5

Query: I have this compound here, COC(=O)[C@H](C)N(C)C(=O)C(CC(N)=O)N(C)C(=O)[C@H](Cc1ccccc1)N(C)C(=O)[C@@H]1CCCN1C(=O)[C@H](C(C)C)N(C)C(=O)C(C(C)C)N(C)C(=O)[C@@H](NC(=O)OC(C)(C)C)C(C)C (stereo partly drawn) (Boc-V[ξNMeV][NMeV]P[NMeF][ξNMeN][NMeA]-OMe) , and I need its recorded growth inhibition.
Reply: -13.9

Query: And the next one, O=C(NCCCl)NCC1CCCO1 (stereo not drawn) ?
Reply: -13.8

Query: And the next one, CC(C)=CC(C)(O)c1nc2ccccc2s1 (stereo not drawn) ?
Reply: 7.25

Query: And the next one, CCOC(=O)Nc1ccccc1 ?
Reply: 1.55

Query: And the next one, CCOC(=O)CC1OCCO1 ?
Reply: -24.7

Query: And the next one, O=C(O)c1ncn2c(=O)n(CCCl)nnc12 ?
Reply: -15.8

* * *

test: NCI Yeast Anticancer Drug Screen. Data for the rad50 strain (AID 155);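 also: 0% = growth of vehicle-only cultures of the same strain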; details: S. cerevisiae rad50 strain growth inhibition; at 50.0 µM; hits give high values
The panel holds about 79,000 compounds, 15% with a hit somewhere; the sample as a whole holds those more often.
property.name: growth inhibition (%)
Record the value in %, omitting the unit from your answer.

// solved cases for growth inhibition follow
compound	property.name	reported.result
C#CCOc1ccc(O)c(C(=O)OCCCOC(=O)c2cc(OCC#C)ccc2O)c1	growth inhibition	16.1
CCC(C)C(O)CC (configuration not stated)	growth inhibition	-9.5
NC(=Nc1ccccc1)c1ccc(Cl)cc1	growth inhibition	66.2
Cc1ccc(S(=O)(=O)c2scc(-c3ccccc3)c2C)cc1	growth inhibition	-47.2
C=C(Br)CN=CN(C)C	growth inhibition	23.6
O=C(NNc1ccccc1)NNc1ccccc1	growth inhibition	32.8

Query: I have this compound here, O=C(/C=C/c1ccc(OCc2ccccc2)c(OCc2ccccc2)c1)OCc1ccccc1 , and I need its recorded growth inhibition.
Reply: -12

* * *

test: NCI Yeast Anticancer Drug Screen. Data for the sgs1 mgt1 strain (AID 161);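 also: 0% = growth of cultures given vehicle only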; settings: S. cerevisiae sgs1 mgt1 strain, at 50.0 µM
This is part of a sample that, as a whole, favours compounds with a hit. Of some 79,000 tested, about 15% had one in any assay. Activity calls are given as the source filed them. Rule as the data show it: active = growth inhibition above about 70%; inactive = the rest.
Would you mind answering with one of these outcomes? active, inactive

compound	class.assignment
Cc1ccc(CNC(=O)Nc2cccc(Cl)c2)cc1C	inactive

Here is another compound to look at.
Query: What is the recorded call for this compound in the test? CCCC(=O)Nc1cc([N+](=O)[O-])c([N+](=O)[O-])cc1OC
Reply: inactive

* * *

assay: NCI Yeast Anticancer Drug Screen. Data for the rad50 strain (AID 155);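 also: 0% = growth of vehicle-only cultures of the same strain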; conditions: S. cerevisiae rad50 strain growth inhibition; at 50.0 µM
Compounds without any hit were thinned out: in the full panel of roughly 79,000, 15% have a hit. Calls of active or inactive are those of the source. No stated cut-off is given here; in the data, active means growth inhibition above about 70%; inactive means the rest.
Would you mind answering with one of these outcomes? 1 = active, -1 = inactive

compound	class.assignment
O=C1Cc2ccccc2CN1	-1
N#CCCC(=O)O	-1
C=Cn1c([N+](=O)[O-])cnc1/C=C/c1ccc(C(=O)OCCN2CCOCC2)cc1	-1
CCN(/C=C/C=C(C#N)C#N)CC	-1

Query: What is the recorded call for this compound in the test? CN(C)CCNc1ccc2ncn3c4ccccc4c(=O)c1c23
Reply: -1

Query: And the next one, Nc1nc(N)c2cc(N3CCCC3c3ccc(Cl)cc3)ccc2n1 (stereo unspecified) ?
Reply: 1

Query: And the next one, Nc1ncnc2c1S(=O)(=O)NCN2 ?
Reply: -1

Query: And the next one, O=C1C(c2ccccc2)=C(c2ccccc2)C(c2ccc(Sc3ccc(C4=C(c5ccccc5)C(=O)C(c5ccccc5)=C4c4ccccc4)cc3)cc2)=C1c1ccccc1 ?
Reply: -1

Query: And the next one, CC1(C)OC2(CC1C1(C)C=CC(=O)O1)CC1C(O)(CCC34CC13C(=O)OC4c1ccoc1)O2 (stereo unspecified) ?
Reply: -1

Query: And the next one, CC1(C)C2CCC1(C)C1(C2)OC(CCl)CS1 (stereo unspecified) ?
Reply: -1

Query: And the next one, C/C(=N/O)C1c2ccccc2Cc2ccccc21 ?
Reply: -1
